measured.target: UniProt P40238
Sequence (P40238 26-635): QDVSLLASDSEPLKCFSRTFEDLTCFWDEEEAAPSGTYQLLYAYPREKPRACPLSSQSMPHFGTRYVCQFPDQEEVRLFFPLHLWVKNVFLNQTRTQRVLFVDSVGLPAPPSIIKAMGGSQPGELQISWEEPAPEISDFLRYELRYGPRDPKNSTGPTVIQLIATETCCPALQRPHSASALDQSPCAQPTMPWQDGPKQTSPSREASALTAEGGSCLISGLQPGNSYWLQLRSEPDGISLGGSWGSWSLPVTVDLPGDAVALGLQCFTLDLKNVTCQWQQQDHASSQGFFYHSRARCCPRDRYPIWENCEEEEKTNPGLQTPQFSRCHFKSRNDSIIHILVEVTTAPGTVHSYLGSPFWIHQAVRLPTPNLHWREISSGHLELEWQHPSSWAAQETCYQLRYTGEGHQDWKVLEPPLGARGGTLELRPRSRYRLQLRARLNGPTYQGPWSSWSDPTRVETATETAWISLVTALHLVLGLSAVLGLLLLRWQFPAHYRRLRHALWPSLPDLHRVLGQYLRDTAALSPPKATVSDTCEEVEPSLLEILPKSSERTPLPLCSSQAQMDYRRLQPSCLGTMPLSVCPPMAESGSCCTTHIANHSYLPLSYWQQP
test: BaF3/hTPO-R in vitro proliferation assay
condition.context: murine BaF3 cell line transfected with human Tpo-R

given.smiles	value.unit	EC50
CC1=NN(C2CCCCC2)C(=O)C1=NNc1cccc(-c2cccc(C(=O)O)c2)c1O	nM	800
